EXPERIMENTAL SYSTEM: D3 receptor (Homo sapiens (Human), UniProt P35462)
Sequence (P35462 whole entry): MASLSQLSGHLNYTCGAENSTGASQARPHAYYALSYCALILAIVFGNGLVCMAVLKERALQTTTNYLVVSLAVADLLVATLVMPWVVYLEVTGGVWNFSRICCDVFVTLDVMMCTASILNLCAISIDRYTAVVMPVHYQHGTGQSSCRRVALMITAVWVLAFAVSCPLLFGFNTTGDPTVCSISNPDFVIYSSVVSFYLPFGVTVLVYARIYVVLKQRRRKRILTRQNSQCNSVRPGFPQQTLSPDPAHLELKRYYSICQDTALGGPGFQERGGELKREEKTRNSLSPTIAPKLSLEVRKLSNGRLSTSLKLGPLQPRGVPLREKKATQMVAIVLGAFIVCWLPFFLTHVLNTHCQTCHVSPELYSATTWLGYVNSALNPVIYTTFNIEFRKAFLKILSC
TEST DETAILS: Radioligand binding assay ([3H]-spiperone) on membranes of HEK293 EBNA cells expressing human D3 receptor
CONDITION CONTEXT: read-out: D3 Ki; human receptor in HEK293 EBNA cells; 0.5 nM [3H]-spiperone
pKi: −log10 of the molar value.
Assign yes to entries whose pKi meets or exceeds 8; assign no to the rest.

Recorded results for 2 compounds are shown here.
CC(C)(O)C(=O)N[C@H]1CC[C@H](CCN2CCC(c3cccc4c3OCO4)CC2)CC1 [Example 32]: no
CN1CCN(CC(=O)N[C@H]2CC[C@H](CCN3CCC(c4cccc5c4OCO5)CC3)CC2)CC1 [Example 68]: no

## Task Given COCCC(=O)N[C@H]1CC[C@H](CCN2CCC(c3cccc4c3OCO4)CC2)CC1 [Example 2] , state whether its pKi is at least 8.
## Result yes

----------
Attribute: Ki
EXPERIMENTAL SYSTEM: D3 receptor (Homo sapiens (Human), UniProt P35462)
TEST DETAILS: Radioligand binding assay ([3H]-spiperone) on membranes of HEK293 EBNA cells expressing human D3 receptor
CONDITION CONTEXT: read-out: D3 Ki; human receptor in HEK293 EBNA cells; 0.5 nM [3H]-spiperone
Express the result in nM but write the number alone.

CS(=O)(=O)CC(=O)N[C@H]1CC[C@H](CCN2CCC(c3cccc4c3OCO4)CC2)CC1: 4.63
COC(C)CC(=O)N[C@H]1CC[C@H](CCN2CCC(c3cccc4c3OCO4)CC2)CC1 (stereo partly shown): 7.52
O=C(N[C@H]1CC[C@H](CCN2CCC(c3cccc4c3OCO4)CC2)CC1)c1ccnc2ccccc12: 6.16

Please turn your attention to the following entry.
## Task // fetch D3 receptor (Homo sapiens (Human), UniProt P35462) Ki for `O=S(=O)(N[C@H]1CC[C@H](CCN2CCC(c3cccc4c3OCO4)CC2)CC1)N1CCOCC1`
## Result 6.11

----------
EXPERIMENTAL SYSTEM: D2 receptor (Homo sapiens (Human), UniProt P14416)
Sequence (P14416 whole entry): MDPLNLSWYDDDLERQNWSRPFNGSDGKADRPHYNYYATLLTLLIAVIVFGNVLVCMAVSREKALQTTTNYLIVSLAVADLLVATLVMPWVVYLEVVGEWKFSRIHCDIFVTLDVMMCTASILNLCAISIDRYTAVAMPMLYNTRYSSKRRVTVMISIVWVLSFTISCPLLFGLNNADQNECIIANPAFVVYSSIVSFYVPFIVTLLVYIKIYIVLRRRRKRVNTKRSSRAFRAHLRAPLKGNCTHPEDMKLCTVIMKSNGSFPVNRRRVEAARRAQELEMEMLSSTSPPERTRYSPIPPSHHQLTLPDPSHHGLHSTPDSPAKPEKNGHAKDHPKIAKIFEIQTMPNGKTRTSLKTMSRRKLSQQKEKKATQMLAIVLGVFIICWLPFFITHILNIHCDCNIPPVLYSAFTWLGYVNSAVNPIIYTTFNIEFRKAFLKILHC
TEST DETAILS: Radioligand binding assay ([3H]-spiperone) on membranes of HEK293 EBNA cells expressing human D2 receptor
CONDITION CONTEXT: human receptor in HEK293 EBNA cells; 0.7 nM [3H]-spiperone
OBSERVED PROPERTY: Ki (µM)
Express the result in µM but write the number alone.

## Task # get_value(readout='Ki', item= O=C(CC1(O)CCOCC1)N[C@H]1CC[C@H](CCN2CCC(c3cccc4c3OCO4)CC2)CC1 [Example 31] )
## Result 0.306

## Task # get_value(readout='Ki', item= O=C(CO)N[C@H]1CC[C@H](CCN2CCC(c3cccc4c3OCO4)CC2)CC1 [Example 65] )
## Result 0.298

## Task # get_value(readout='Ki', item= O=C(N[C@H]1CC[C@H](CCN2CCC(c3cccc4c3OCO4)CC2)CC1)C1CC(Cl)C1 (stereo partly drawn) [Example 28] )
## Result 0.305

----------
EXPERIMENTAL SYSTEM: D3 receptor (Homo sapiens (Human), UniProt P35462)
TEST DETAILS: Radioligand binding assay ([3H]-spiperone) on membranes of HEK293 EBNA cells expressing human D3 receptor
CONDITION CONTEXT: read-out: D3 Ki; human receptor in HEK293 EBNA cells; 0.5 nM [3H]-spiperone
OBSERVED PROPERTY: pKi
pKi is defined as minus the log10 of a concentration measured in mol/L.

CO[C@@H]1CC[C@@H](CC(=O)N[C@H]2CC[C@H](CCN3CCC(c4cccc5c4OCO5)CC3)CC2)C1: 8.28
O=C(N[C@H]1CC[C@H](CCN2CCC(c3cccc4c3OCO4)CC2)CC1)[C@H](O)C(F)(F)F: 8.12
O=C(C[C@H]1CCCO1)N[C@H]1CC[C@H](CCN2CCC(c3cccc4c3OCO4)CC2)CC1: 7.97
O=C(N[C@H]1CC[C@H](CCN2CCC(c3cccc4c3OCO4)CC2)CC1)C(O)C(F)(F)F (stereo partly shown): 8.07
COC(=O)N[C@H]1CC[C@H](CCN2CCC(c3cccc4c3OCO4)CC2)CC1: 8.49

## Task # get_value(readout='pKi', item= `O=C(C[C@H]1CCCCO1)N[C@H]1CC[C@H](CCN2CCC(c3cccc4c3OCO4)CC2)CC1` )
## Result 8.12

## Task # get_value(readout='pKi', item= `O=C(N[C@H]1CC[C@H](CCN2CCC(c3cccc4c3OCO4)CC2)CC1)c1ccc(Cl)cc1` )
## Result 8.20

## Task # get_value(readout='pKi', item= `N#Cc1ccc(C(=O)N[C@H]2CC[C@H](CCN3CCC(c4cccc5c4OCO5)CC3)CC2)cc1` )
## Result 8.11

## Task # get_value(readout='pKi', item= `O=C(CC1CCOCC1)N[C@H]1CC[C@H](CCN2CCC(c3cccc4c3OCO4)CC2)CC1` )
## Result 8.06

----------
EXPERIMENTAL SYSTEM: D2 receptor (Homo sapiens (Human), UniProt P14416)
TEST DETAILS: Radioligand binding assay ([3H]-spiperone) on membranes of HEK293 EBNA cells expressing human D2 receptor
CONDITION CONTEXT: human receptor in HEK293 EBNA cells; 0.7 nM [3H]-spiperone
Attribute: Ki
Express the result in nM but write the number alone.

// below: answered molecules
O=C(C[C@H]1CCCO1)N[C@H]1CC[C@H](CCN2CCC(c3cccc4c3OCO4)CC2)CC1 [Example 16]: 228
O=C(CCC(F)(F)F)N[C@H]1CC[C@H](CCN2CCC(c3cccc4c3OCO4)CC2)CC1 [Example 11]: 410
O=C(C[C@H]1CCCCO1)N[C@H]1CC[C@H](CCN2CCC(c3cccc4c3OCO4)CC2)CC1 [Example 41]: 491

Please turn your attention to the following entry.
## Task # get_value(readout='Ki', item= O=C(N[C@H]1CC[C@H](CCN2CCC(c3cccc4c3OCO4)CC2)CC1)c1ccc2c(c1)OCCO2 [Example 58] )
## Result 345

----------
EXPERIMENTAL SYSTEM: D3 receptor (Homo sapiens (Human), UniProt P35462)
TEST DETAILS: Radioligand binding assay ([3H]-spiperone) on membranes of HEK293 EBNA cells expressing human D3 receptor
CONDITION CONTEXT: read-out: D3 Ki; human receptor in HEK293 EBNA cells; 0.5 nM [3H]-spiperone
Quick rule for you: Ki under 7 nM gets Criterion met, anything else gets Criterion not met.

O=C(N[C@H]1CC[C@H](CCN2CCC(c3cccc4c3OCO4)CC2)CC1)c1ccc(N2CCOCC2)cc1: Criterion not met
O=C(CC1CC1)N[C@H]1CC[C@H](CCN2CCC(c3cccc4c3OCO4)CC2)CC1: Criterion met
O=C(CCC(F)(F)F)N[C@H]1CC[C@H](CCN2CCC(c3cccc4c3OCO4)CC2)CC1: Criterion not met
O=C(N[C@H]1CC[C@H](CCN2CCC(c3cccc4c3OCO4)CC2)CC1)c1ccc(F)cc1: Criterion met
O=C(N[C@H]1CC[C@H](CCN2CCC(c3cccc4c3OCO4)CC2)CC1)C1CC(Cl)C1 (stereo partly shown): Criterion met

Turning to the following compound.
## Task Ki strictly < 7 nM for this compound? `CO[C@H](C)C(=O)N[C@H]1CC[C@H](CCN2CCC(c3cccc4c3OCO4)CC2)CC1`
## Result Criterion not met

----------
EXPERIMENTAL SYSTEM: 5-HT2A receptor (Homo sapiens (Human), UniProt P28223)
TEST DETAILS: Radioligand binding assay ([3H]-ketanserin) on membranes of HEK293 EBNA cells expressing human 5-HT2A receptor
CONDITION CONTEXT: read-out: 5HT2A Ki
Attribute: Ki

O=C(N[C@H]1CC[C@H](CCN2CCC(c3cccc4c3OCO4)CC2)CC1)C1CCC1: 16.9 nM
O=C(CC1CCCCO1)N[C@H]1CC[C@H](CCN2CCC(c3cccc4c3OCO4)CC2)CC1 (some centres unmarked): 15.6 nM
O=S(=O)(N[C@H]1CC[C@H](CCN2CCC(c3cccc4c3OCO4)CC2)CC1)c1ccccc1: 52.2 nM
O=C(N[C@H]1CC[C@H](CCN2CCC(c3cccc4c3OCO4)CC2)CC1)C1CCS(=O)(=O)C1 (some centres unmarked): 4.57 nM

## Task # get_value(readout='Ki', item= `O=C(N[C@H]1CC[C@H](CCN2CCC(c3cccc4c3OCO4)CC2)CC1)N1CCc2ccccc21` )
## Result 25.4 nM

----------
Attribute: pKi
EXPERIMENTAL SYSTEM: 5-HT2A receptor (Homo sapiens (Human), UniProt P28223)
TEST DETAILS: Radioligand binding assay ([3H]-ketanserin) on membranes of HEK293 EBNA cells expressing human 5-HT2A receptor
CONDITION CONTEXT: read-out: 5HT2A Ki; human receptor in HEK293 EBNA cells; 1.1 nM [3H]-ketanserin
pKi is defined as minus the log10 of a concentration measured in mol/L.

// below: answered molecules
O=C(Cc1ccc2c(c1)OCO2)N[C@H]1CC[C@H](CCN2CCC(c3cccc4c3OCO4)CC2)CC1 [Example 59]: 7.43
O=C(N[C@H]1CC[C@H](CCN2CCC(c3cccc4c3OCO4)CC2)CC1)c1ccc(Cl)cc1 [Example 36]: 7.66
O=C(N[C@H]1CC[C@H](CCN2CCC(c3cccc4c3OCO4)CC2)CC1)C1CCOCC1 [Example 48]: 8.02
O=C(N[C@H]1CC[C@H](CCN2CCC(c3cccc4c3OCO4)CC2)CC1)c1ccc(N2CCOCC2)cc1 [Example 56]: 7.73

## Task # get_value(readout='pKi', item= CC(=O)N[C@H]1CC[C@H](CCN2CCC(c3cccc4c3OCO4)CC2)CC1 [Example 1] )
## Result 7.62

## Task # get_value(readout='pKi', item= O=C(N[C@H]1CC[C@H](CCN2CCC(c3cccc4c3OCO4)CC2)CC1)C1(C(F)(F)F)CC1 [Example 50] )
## Result 7.72

## Task # get_value(readout='pKi', item= CO[C@@H](C)C(=O)N[C@H]1CC[C@H](CCN2CCC(c3cccc4c3OCO4)CC2)CC1 [Example 33] )
## Result 7.54

## Task # get_value(readout='pKi', item= COCCC(=O)N[C@H]1CC[C@H](CCN2CCC(c3cccc4c3OCO4)CC2)CC1 [Example 2] )
## Result 7.42

## Task # get_value(readout='pKi', item= O=C(N[C@H]1CC[C@H](CCN2CCC(c3cccc4c3OCO4)CC2)CC1)C1CCCO1 (stereo partly drawn) [Example 46] )
## Result 7.84
